Assay: Cytotoxicity against human NCM460 cells assessed as inhibition rate of cell growth at 100 uM incubated for 24 hrs by CCK8 assay relative to control
Format: toxicity, cell-based
So basically: inhibition at 24 h, 100 µM at 30% or higher? That is criterion met. Lower than 30%? That is criterion not met.

> print(dat)
                                    molecule  assigned.category
 1        CCOc1cc(C(C)C)c(Oc2cnc(N)nc2N)cc1I  criterion not met
 2          CC(C)c1cc(O)c(I)cc1Oc1cnc(N)nc1N  criterion not met
 3  CC(C)c1cc(OCCc2ccccc2)c(I)cc1Oc1cnc(N)nc1N      criterion met
 4  COc1cc(C(C)C)c(Oc2cnc(N)nc2N)cc1-c1cccc(Cl)c1  criterion not met
 5  CCCC(C)Oc1cc(C(C)C)c(Oc2cnc(N)nc2N)cc1I (stereo unspecified)  criterion not met
 6  COc1cc(C(C)C)c(Oc2cnc(N)nc2N)cc1-c1ccccc1Cl  criterion not met
 7  COc1cc(C(C)C)c(Oc2cnc(N)nc2N)cc1-c1cc(C)cc(C)c1      criterion met
 8  COc1cc(C(C)C)c(Oc2cnc(N)nc2N)cc1-c1cccc(C(F)(F)F)c1      criterion met
 9  CCc1cc(Oc2cnc(N)nc2N)c(C(C)CC)cc1OC (stereo unspecified)      criterion met
10  COc1ccc(-c2cc(Oc3cnc(N)nc3N)c(C(C)C)cc2OC)cc1      criterion met

* * *

Tested on: Staphylococcus aureus
Assay: Antibacterial activity against TMP-resistant Staphylococcus aureus BHKS 227 incubated for 24 hrs by CLSI based broth microdilution assay
Assay type: functional
MIC vs 2 µg/mL: less than gives 1 (yes); not less than gives 0 (no).

> print(dat)
                         structure.notation  assigned.category
1  COc1cc(C(C)C)c(Oc2cnc(N)nc2N)cc1-c1ccc(O)cc1            1 (yes)
2    COc1cc(C(C)C)c(Oc2cnc(N)nc2N)cc1CC(C)C             0 (no)
3      CCCCOc1cc(C(C)C)c(Oc2cnc(N)nc2N)cc1I            1 (yes)
4  COc1cc(C(C)C)c(Oc2cnc(N)nc2N)cc1-c1ccc(C(C)(C)C)cc1             0 (no)
5  COc1cc(C(C)C)c(Oc2cnc(N)nc2N)cc1-c1cc(C(F)(F)F)cc(C(F)(F)F)c1             0 (no)
6  CC(C)c1cc(OCC2CCCCC2)c(I)cc1Oc1cnc(N)nc1N             0 (no)
7  COc1cc(C(C)C)c(Oc2cnc(N)nc2N)cc1-c1ccc(F)cc1            1 (yes)

* * *

Test: Clearance in Sprague-Dawley rat at 5 mg/kg, iv measured for 24 hrs by LC/MS analysis
Assay type: ADME, organism-based
Conditions: in vivo
parameter_measured: clearance (mL/min/kg)

> print(dat)
                       structure.notation  display.unit  quantitative.readout
1  CC(C)c1cc(OCC2CC2)c(I)cc1Oc1cnc(N)nc1N     mL/min/kg                    25

* * *

Tested on: Staphylococcus aureus
Test: Antibacterial activity against TMP-resistant Staphylococcus aureus BHKS 227 incubated for 24 hrs by CLSI based broth microdilution assay
Type: functional
Listed here: items and their measured MIC.
parameter_measured: MIC (µg/mL)

> print(dat)
                                    compound  display.unit  lt.gt.eq  quantitative.readout
 1    CCCCCCOc1cc(C(C)C)c(Oc2cnc(N)nc2N)cc1I         µg/mL         =                     8
 2         COc1cc(C(C)C)c(Oc2cnc(N)nc2N)cc1C         µg/mL         =                     4
 3  COc1cc(C(C)C)c(Oc2cnc(N)nc2N)cc1-c1ccc(C(F)(F)F)cc1         µg/mL         =                     2
 4  COc1cc(C(C)C)c(Oc2cnc(N)nc2N)cc1-c1cc(F)cc(F)c1         µg/mL         =                     4
 5     COc1cc(C(C)C)c(Oc2cnc(N)nc2N)cc1C1CC1         µg/mL         =                     4
 6  COc1cc(C(C)C)c(Oc2cnc(NC(C)=O)nc2NC(C)=O)cc1I         µg/mL         >                    32
 7  COc1cc(C(C)C)c(Oc2cnc(N)nc2N)cc1-c1ccc(C)cc1         µg/mL         =                     2
 8  COc1cc(C(C)C)c(Oc2cnc(N)nc2N)cc1-c1ccc(C(F)(F)F)c(Cl)c1         µg/mL         =                     4
 9  COc1cc(C(C)C)c(Oc2cnc(N)nc2N)cc1-c1ccc(Cl)cc1         µg/mL         =                     1
10  COc1cc(C(C)C)c(Oc2cnc(N)nc2N)cc1-c1ccc2c(c1)OCCO2         µg/mL         =                     4
11  CCC(C)Oc1cc(C(C)C)c(Oc2cnc(N)nc2N)cc1I (configuration not stated)         µg/mL         =                     1
12  COc1cccc(OC)c1C(=O)N[C@@H]1C(=O)N2[C@@H]1SC(C)(C)[C@@H]2C(=O)O         µg/mL         =                    64
13  COc1cc(C(C)C)c(Oc2cnc(N)nc2N)cc1-c1ccccc1Cl         µg/mL         =                    16
14  COc1cc(C(C)C)c(Oc2cnc(N)nc2N)cc1-c1cc(Cl)cc(Cl)c1         µg/mL         =                     1
15  COc1cc(C(C)C)c(Oc2cnc(N)nc2N)cc1-c1ccc(OC(F)(F)F)cc1         µg/mL         =                     1
16  COc1cc(C(C)C)c(Oc2cnc(N)nc2N)cc1-c1ccc2ccccc2c1         µg/mL         =                     1
17  COc1cc(C(C)C)c(Oc2cnc(N)nc2N)cc1-c1ccc(C(C)C)cc1         µg/mL         =                     1

Reference source: ChEMBL document CHEMBL5528082
